# Test system: PXR:RXRa (NR concentration 270 nM, RXRa partner concentration 90 nM)
# test description: PBM binding z-score (relative to random genomic background probes); higher = stronger binding; sequences stand for … in GC…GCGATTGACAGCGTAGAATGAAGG
measured property: PBM binding z-score

* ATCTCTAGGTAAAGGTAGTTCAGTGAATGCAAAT | 1.15
* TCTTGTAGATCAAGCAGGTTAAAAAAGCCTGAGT | 0.876
* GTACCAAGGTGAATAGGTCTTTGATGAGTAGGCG | 0.0831
* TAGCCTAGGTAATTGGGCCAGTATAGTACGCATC | -0.502
* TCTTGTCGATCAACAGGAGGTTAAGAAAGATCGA | 0.727
* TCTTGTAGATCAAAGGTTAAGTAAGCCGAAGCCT | 2.16
* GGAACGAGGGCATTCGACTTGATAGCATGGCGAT | 0.499
* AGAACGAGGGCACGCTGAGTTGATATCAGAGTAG | 1.44
* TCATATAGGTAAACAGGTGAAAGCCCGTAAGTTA | 0.744
* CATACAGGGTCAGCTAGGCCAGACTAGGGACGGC | 2.01
* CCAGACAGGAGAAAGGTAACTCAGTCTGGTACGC | -0.00799
* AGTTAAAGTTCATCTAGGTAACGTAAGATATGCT | 4.75
* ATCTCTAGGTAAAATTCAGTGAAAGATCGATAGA | -0.0781
* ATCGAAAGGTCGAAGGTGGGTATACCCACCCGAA | 2.11
* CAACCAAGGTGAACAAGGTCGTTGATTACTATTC | 2.8
* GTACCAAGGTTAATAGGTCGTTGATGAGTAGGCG | 1.69
* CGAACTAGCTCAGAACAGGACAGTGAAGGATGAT | -0.669
* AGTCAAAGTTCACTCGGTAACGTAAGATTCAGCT | 4.21
* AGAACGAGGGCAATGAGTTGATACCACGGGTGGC | 1.66
* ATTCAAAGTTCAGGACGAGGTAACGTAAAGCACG | 2.95
* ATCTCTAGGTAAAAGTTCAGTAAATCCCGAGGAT | 1.8
* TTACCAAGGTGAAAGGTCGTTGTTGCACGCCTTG | 3.78
* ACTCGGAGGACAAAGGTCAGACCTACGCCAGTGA | 4.16
* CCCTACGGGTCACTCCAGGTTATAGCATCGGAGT | 5.1
* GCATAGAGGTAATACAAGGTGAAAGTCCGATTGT | 1.03
* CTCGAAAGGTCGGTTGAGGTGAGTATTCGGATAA | 3.05

---

This section presents sequences with their documented PBM binding z-score values.
# Test system: PPARg:RXRa DBDmut IVT, anti-RXR (DBD mutation: RXRa K156A/R161A, NR concentration 270 nM, RXRa partner concentration 90 nM)
# test description: PBM binding z-score (relative to random genomic background probes); higher = stronger binding; sequences stand for … in GC…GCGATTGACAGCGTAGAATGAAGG
measured property: PBM binding z-score

• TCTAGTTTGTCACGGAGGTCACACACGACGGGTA = 1.88
• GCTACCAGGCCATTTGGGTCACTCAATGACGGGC = 2.04
• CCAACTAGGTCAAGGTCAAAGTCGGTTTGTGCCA = 8.26
• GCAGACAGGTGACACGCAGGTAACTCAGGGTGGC = 0.596
• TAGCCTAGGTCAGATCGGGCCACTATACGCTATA = 0.727
• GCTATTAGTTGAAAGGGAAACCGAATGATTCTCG = 0.303
• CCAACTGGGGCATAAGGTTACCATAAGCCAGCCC = 4.69
• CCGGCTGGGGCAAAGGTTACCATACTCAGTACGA = 0.545
• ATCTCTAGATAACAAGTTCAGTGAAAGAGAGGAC = -0.504
• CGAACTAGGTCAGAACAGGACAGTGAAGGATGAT = 7.21
• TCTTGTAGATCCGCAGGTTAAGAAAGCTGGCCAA = 1.29
• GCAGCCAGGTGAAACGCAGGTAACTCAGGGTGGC = 1.32
